Measured TGI values are reported for all entries that follow.
- Test system: TK-10 renal
- procedure-summary: NCI tumour cell line growth inhibition, 48 h

Worked set:
molecule: C[C@@H]1C[N+]2([O-])[C@H]3C4=CCC[C@@H]4CC[C@H]3[C@@]3(C)OC(=O)CC[C@]34CC[C@H]1[C@@H]42 (some centres not stated)
assay-system: TK-10 renal
TGI: > 60 µM
--
molecule: CC12CCC(C(Br)(Br)C1=O)C2(C)C (configuration not stated)
assay-system: TK-10 renal
TGI: 11 µM
--
molecule: S=C(S)N1CCN(c2cccc(Cl)c2)CC1
assay-system: TK-10 renal
TGI: > 100 µM
--
molecule: O=C(NC(=S)Nc1ccccc1)c1ccc([N+](=O)[O-])cc1
assay-system: TK-10 renal
TGI: > 100 µM
--
molecule: Cc1nn(C2OC(CO)C(O)C(F)C2O)c(=O)[nH]c1=O (configuration not stated)
assay-system: TK-10 renal
TGI: > 100 µM
--
molecule: CN(C)Cc1cc(N=Nc2ccccc2)ccc1O
assay-system: TK-10 renal
TGI: > 100 µM

Turning now to a further molecule:
Would you kindly share the measured TGI for O=S(=O)(O)SC/C=C\CSS(=O)(=O)O ?
> 100 µM
